Catalogue of molecules with associated λem (emission wavelength)
# measurement-description: UV-Vis absorption and emission spectra of flavins in DMSO
# Assay type: physicochemical
# assay-setup: measured in DMSO
measured-quantity: λem (emission wavelength)

>>> measured_result("CCCCCCCCn1c(=O)nc2n(CCN)c3cc(C)c(C)cc3nc-2c1=O [Flavin F1]")
"507 nm"
>>> measured_result("CCCCCCCCn1c(=O)nc2n(CCNC(=N)N)c3cc(Br)c(Br)cc3nc-2c1=O [Flavin F4]")
"513 nm"
>>> measured_result("CCCCCCCCn1c(=O)nc2n(CCNC(=N)N)c3cc(C)c(C)cc3nc-2c1=O [Flavin F2]")
"512 nm"
>>> measured_result("CCCCCCCCn1c(=O)nc2n(CCN)c3cc(Br)c(Br)cc3nc-2c1=O [Flavin F3]")
"508 nm"

---

# Tested on: 17Cl-1 cells
# measurement-description: 24 h MTS cytotoxicity assay, 17Cl-1
# Format: cell-based, murine
# assay-setup: Mus musculus, 24 h incubation, dark
pIC50: −log10 of the molar value.
measured-quantity: pIC50

>>> measured_result("CCCCCCCCn1c(=O)nc2n(CCN)c3cc(C)c(C)cc3nc-2c1=O [Flavin F1]")
4.15
>>> measured_result("CCCCCCCCn1c(=O)nc2n(CCNC(=N)N)c3cc(Br)c(Br)cc3nc-2c1=O [Flavin F4]")
4.29
>>> measured_result("CCCCCCCCn1c(=O)nc2n(CCN)c3cc(Br)c(Br)cc3nc-2c1=O [Flavin F3]")
5.44

---

# measurement-description: Fluorescence quantum yield determination
# Assay type: physicochemical
# assay-setup: in DMSO
measured-quantity: ФF fluorescence quantum yield (%)

>>> measured_result("CCCCCCCCn1c(=O)nc2n(CCN)c3cc(C)c(C)cc3nc-2c1=O")
13
>>> measured_result("CCCCCCCCn1c(=O)nc2n(CCNC(=N)N)c3cc(C)c(C)cc3nc-2c1=O")
14

---

# System: murine hepatitis virus A59 strain (MHV-A59)
# measurement-description: Photodynamic inactivation of MHV-A59 (TCID50 assay in 17Cl-1 cells)
# Type: cell-based
# assay-setup: 10 µM flavin, 10 min irradiation
measured-quantity: MHV-A59 log10 reduction in viral titre

>>> measured_result("CCCCCCCCn1c(=O)nc2n(CCN)c3cc(Br)c(Br)cc3nc-2c1=O")
"4.8 log10"
>>> measured_result("CCCCCCCCn1c(=O)nc2n(CCNC(=N)N)c3cc(C)c(C)cc3nc-2c1=O")
"3.8 log10"
>>> measured_result("CCCCCCCCn1c(=O)nc2n(CCN)c3cc(C)c(C)cc3nc-2c1=O")
"2.1 log10"
>>> measured_result("Cc1cc2nc3c(=O)[nH]c(=O)nc-3n(C[C@H](O)[C@H](O)[C@H](O)CO)c2cc1C [Riboflavin, reference compound]")
"3.4 log10"

---

# measurement-description: Flavin photostability in PBS under white LED irradiation
# Format: physicochemical
# assay-setup: 100 µM in PBS, white LED 1 × 10^5 lx, 30 min irradiation
measured-quantity: photodecomposition / degradation

>>> measured_result("CCCCCCCCn1c(=O)nc2n(CCNC(=N)N)c3cc(Br)c(Br)cc3nc-2c1=O [Flavin F4]")
"~30%"
>>> measured_result("CCCCCCCCn1c(=O)nc2n(CCN)c3cc(Br)c(Br)cc3nc-2c1=O [Flavin F3]")
"~60%"

---

# measurement-description: UV-Vis absorption and emission spectra of flavins in DMSO
# Format: physicochemical
# assay-setup: measured in DMSO
Entries annotated with measured λ2 (S0 → S2 absorption band)
measured-quantity: λ2 (S0 → S2 absorption band)

>>> measured_result("CCCCCCCCn1c(=O)nc2n(CCN)c3cc(C)c(C)cc3nc-2c1=O")
"349 nm"
>>> measured_result("CCCCCCCCn1c(=O)nc2n(CCNC(=N)N)c3cc(Br)c(Br)cc3nc-2c1=O")
"340 nm"
>>> measured_result("CCCCCCCCn1c(=O)nc2n(CCNC(=N)N)c3cc(C)c(C)cc3nc-2c1=O")
"350 nm"
>>> measured_result("CCCCCCCCn1c(=O)nc2n(CCN)c3cc(Br)c(Br)cc3nc-2c1=O")
"336 nm"

---

# measurement-description: UV-Vis absorption and emission spectra of flavins in DMSO
# Format: physicochemical
# assay-setup: measured in DMSO
measured-quantity: λ1 (S0 → S1 absorption band) (nm)

>>> measured_result("CCCCCCCCn1c(=O)nc2n(CCN)c3cc(Br)c(Br)cc3nc-2c1=O")
443
>>> measured_result("CCCCCCCCn1c(=O)nc2n(CCN)c3cc(C)c(C)cc3nc-2c1=O")
444
>>> measured_result("CCCCCCCCn1c(=O)nc2n(CCNC(=N)N)c3cc(Br)c(Br)cc3nc-2c1=O")
444
>>> measured_result("CCCCCCCCn1c(=O)nc2n(CCNC(=N)N)c3cc(C)c(C)cc3nc-2c1=O")
446

---

# reduction in cell viability (light-induced toxicity) listing for each entry below
# Test system: WI-38 cells
# measurement-description: Light-induced toxicity towards WI-38 cells (MTS)
# Type: cell-based, human
# assay-setup: 10 μM flavin, 15 min irradiation 1 × 10^5 lx
measured-quantity: reduction in cell viability (light-induced toxicity)

>>> measured_result("CCCCCCCCn1c(=O)nc2n(CCNC(=N)N)c3cc(Br)c(Br)cc3nc-2c1=O [Flavin F4]")
"~ 20%"
>>> measured_result("CCCCCCCCn1c(=O)nc2n(CCNC(=N)N)c3cc(C)c(C)cc3nc-2c1=O [Flavin F2]")
"~ 75%"

---

# System: murine hepatitis virus A59 strain (MHV-A59)
# measurement-description: Photodynamic inactivation of MHV-A59 (TCID50 assay in 17Cl-1 cells)
# Format: cell-based
# assay-setup: 1 µM flavin, 10 min irradiation (21.0 J/cm^2)
measured-quantity: MHV-A59 log10 reduction in viral titre (log10)

>>> measured_result("Cc1cc2nc3c(=O)[nH]c(=O)nc-3n(C[C@H](O)[C@H](O)[C@H](O)CO)c2cc1C [Riboflavin, reference compound]")
1.2
>>> measured_result("CCCCCCCCn1c(=O)nc2n(CCN)c3cc(Br)c(Br)cc3nc-2c1=O")
2.1
>>> measured_result("CCCCCCCCn1c(=O)nc2n(CCNC(=N)N)c3cc(C)c(C)cc3nc-2c1=O")
2.1
>>> measured_result("CCCCCCCCn1c(=O)nc2n(CCNC(=N)N)c3cc(Br)c(Br)cc3nc-2c1=O")
3.4

---

# measurement-description: Singlet oxygen quantum yield determination
# Assay type: physicochemical
# assay-setup: in MeCN; calculated using Ru(bpy)3^2+ as the reference
# Lookup of reported φΔ singlet oxygen quantum yield keyed by entry
measured-quantity: φΔ singlet oxygen quantum yield

>>> measured_result("CCCCCCCCn1c(=O)nc2n(CCNC(=N)N)c3cc(Br)c(Br)cc3nc-2c1=O")
"0.62 ± 0.10"
>>> measured_result("CCCCCCCCn1c(=O)nc2n(CCNC(=N)N)c3cc(C)c(C)cc3nc-2c1=O")
"0.55 ± 0.10"
>>> measured_result("CCCCCCCCn1c(=O)nc2n(CCN)c3cc(Br)c(Br)cc3nc-2c1=O")
"0.85 ± 0.09"
>>> measured_result("CCCCCCCCn1c(=O)nc2n(CCN)c3cc(C)c(C)cc3nc-2c1=O")
"0.49 ± 0.12"
